Assay remarks: Pharmacokinetics in mice: plasma and brain drug AUC
Format: in vivo
Condition notes: mouse, brain/plasma, over 7 hrs following single IP injection at 10 mg/kg
# Kp values compiled below
// keep it numeric: no unit symbol after the value

Recorded Kp, per entry:
compound="O=C(CC1Cc2ccccc2C1)N[C@H](CN1CCCC1)[C@H](O)c1cc(Cl)ccn1 [Example 25]" endpoint_result=0.17
compound="O=C(CC1Cc2ccccc2C1)N[C@H](CN1CCCC1)[C@H](O)c1ccc(OC(F)(F)F)cc1 [reference compound]" endpoint_result=0.8
compound="CC(C)(C)Oc1ccc([C@@H](O)[C@@H](CN2CCCC2)NC(=O)CC2Cc3ccccc3C2)cc1 [reference compound]" endpoint_result=0.58
compound="O=C(CC1Cc2ccccc2C1)N[C@H](CN1CCCC1)[C@H](O)c1cccc(Cl)c1 [reference compound]" endpoint_result=0.72
compound="O=C(CC1Cc2ccccc2C1)N[C@H](CN1CCCC1)[C@H](O)c1ccc(OC(F)(F)F)cn1 [Example 21]" endpoint_result=0.35

Please find the next compound below.
Q. Quick one: Kp of CC(C)(C)Oc1ccc([C@@H](O)[C@@H](CN2CCCC2)NC(=O)CC2Cc3ccccc3C2)nc1 [Example 17] ?
A. 0.34

###

Assay remarks: Pharmacokinetics in mice: plasma and brain drug AUC
Type: in vivo
Condition notes: mouse, plasma, over 7 hrs following single IP injection at 10 mg/kg
Measured endpoint: AUC

# count of solved cases: 3
compound="CC(C)(C)Oc1ccc([C@@H](O)[C@@H](CN2CCCC2)NC(=O)CC2Cc3ccccc3C2)cc1 [reference compound]" endpoint_result="1070 ng·h/mL"
compound=O=C(CC1Cc2ccccc2C1)N[C@H](CN1CCCC1)[C@H](O)c1cc(Cl)ccn1 endpoint_result="1040 ng·h/mL"
compound=O=C(CC1Cc2ccccc2C1)N[C@H](CN1CCCC1)[C@H](O)c1ccc(OC(F)(F)F)cn1 endpoint_result="1120 ng·h/mL"

Please find the next compound below.
Q. Returns the measured AUC for the input compound. Input: CC(C)(C)Oc1ccc([C@@H](O)[C@@H](CN2CCCC2)NC(=O)CC2Cc3ccccc3C2)nc1
A. 902 ng·h/mL

###

pIC50: recorded values
System name: GCS in MDCKII cells (Canis lupus familiaris)
Construct: whole cellular lipids of wild type MDCKII cells were extracted; endogenous in cells; host or cells: wild type MDCKII cells
Sequence (A0A8I3MXG6 1-394): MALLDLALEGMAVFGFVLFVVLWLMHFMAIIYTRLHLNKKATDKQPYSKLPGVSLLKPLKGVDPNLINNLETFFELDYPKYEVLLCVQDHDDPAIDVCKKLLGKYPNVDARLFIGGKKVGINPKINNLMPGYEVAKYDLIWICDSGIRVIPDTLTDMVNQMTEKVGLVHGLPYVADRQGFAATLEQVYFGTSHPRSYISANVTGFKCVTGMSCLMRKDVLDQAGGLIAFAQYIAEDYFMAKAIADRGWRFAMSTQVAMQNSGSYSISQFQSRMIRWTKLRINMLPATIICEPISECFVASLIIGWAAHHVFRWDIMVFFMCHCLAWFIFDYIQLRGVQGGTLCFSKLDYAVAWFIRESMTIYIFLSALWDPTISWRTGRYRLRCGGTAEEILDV
Assay remarks: GCS inhibition in MDCKII cells (glucosylceramide content after 24 h)
Assay type: cell-based, canine
Condition notes: 24 hours exposure, glucosylceramide level
Please keep in mind that pIC50 is minus log10 of the molar concentration; only the number is needed.

molecule="COc1ccc(C(O)[C@@H](CN2CCCC2)NC(=O)CC2Cc3ccccc3C2)nc1 (stereo in doubt)" endpoint_result=8.17
molecule=O=C(CC1Cc2ccccc2C1)N[C@H](CN1CCCC1)[C@H](O)c1ccccn1 endpoint_result=7.77
molecule="CC(C)(C)Oc1ccc([C@@H](O)[C@@H](CN2CCCC2)NC(=O)CC2Cc3ccccc3C2)nc1 [Example 7]" endpoint_result=8.10
molecule="O=C(CC1Cc2ccccc2C1)N[C@H](CN1CCCC1)[C@H](O)c1ccc(OC(F)(F)F)cn1 (racemic)" endpoint_result=8.19
molecule="CC(C)(C)Oc1ccc([C@@H](O)[C@@H](CN2CCCC2)NC(=O)CC2Cc3ccc(F)cc3C2)nc1 (stereo partly shown)" endpoint_result=7.62
molecule=O=C(CC1Cc2ccccc2C1)N[C@H](CN1CCCC1)[C@H](O)c1cccnc1 endpoint_result=6.23

Could you now look at the following molecule, please?
Q. Query pIC50 on GCS in MDCKII cells (Canis lupus familiaris) for COc1cccnc1[C@@H](O)[C@@H](CN1CCCC1)NC(=O)CC1Cc2ccccc2C1
A. 6.35
